# System Under Test: ROR1 (UniProt Q01973)
# Sequence (Q01973 30-403): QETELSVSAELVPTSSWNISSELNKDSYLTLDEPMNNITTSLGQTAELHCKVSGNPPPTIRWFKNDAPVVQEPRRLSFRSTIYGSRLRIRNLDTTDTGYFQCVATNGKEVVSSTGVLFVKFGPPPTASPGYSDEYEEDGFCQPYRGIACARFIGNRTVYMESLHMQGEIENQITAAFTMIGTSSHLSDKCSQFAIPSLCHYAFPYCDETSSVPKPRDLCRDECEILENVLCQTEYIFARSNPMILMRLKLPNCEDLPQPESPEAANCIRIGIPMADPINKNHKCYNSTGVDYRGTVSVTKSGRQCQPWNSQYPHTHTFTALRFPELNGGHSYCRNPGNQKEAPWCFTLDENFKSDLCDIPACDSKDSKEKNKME
# Measurement Protocol: SPR
Readout Type: pKd
Lab note: report pKd as minus log10 of the concentration in molar units, number only.

# pKd of PRO2060 (55-38-D07-sc02) (antibody) VQMTQSPSSLSASVGDRVTITCRASENIYSGLAWYQQKPGKPPKLLIYRASTLASGVSSRFSGSGSGTDFTLTISSLQPEDFATYYCQGGYYSSSSTYIAFGTGTKVTVLGGGGGSGGGGSGGGGSGGGGSQSQVVESGGGLVQPGGSLRLSCAVSGFDLSSYAVSWVRQAPGKGLEWIGIIYPRANTYYASWAKGRFTISKDNSKNTVYLQMNSLRAEDTAVYFCARDRYDSGAYLYTTYFNLWGQGTLVTVSS = 9.92

Measured pKd, PRO2062 (55-39-G02-sc02) (antibody) AQQLTQSPSSLSASVGDRVTITCQASQNVWNNNYLSWFQQKPGKPPKLLIVTASTLASGVSSRFSGSGSGTDFTLTISSLQPEDFATYYCAGGFSGEIRAFGTGTKVTVLGGGGGSGGGGSGGGGSGGGGSQSQLVESGGGLVQPGGSLRLSCAVSGLSLSRNAMSWVRQAPGKGLEWIGIILTSGSTYYASWAKGRFTISKDNSKNTVYLQMNSLRAEDTAVYFCVRGIASSSLKSFWGQGTLVTVSS : 9.97

For reference, reported pKd for PRO4135 (55-38-D07-sc09) (antibody) DVQMTQSPSSLSASVGDRVTITCRASENIYSGLAWYQQKPGKPPKLLIYRASTLASGVSSRFSGSGSGTDFTLTISSLQPEDFATYYCQGGYYSSSSTYIAFGTGTKVTVLGGGGGSGGGGSGGGGSGGGGSQSVVESGGGLVQPGGSLRLSCAVSGFDLSSYAVSWVRQAPGKGLEWIGIIYPRANTYYASWAKGRFTISKDNSKNTVYLQMNSLRAEDSAVYFCARDRYDSGAYLYTTYFNLWGQGTLVKVSS stands at 9.91

Short answer for PRO4139 (55-38-D07-sc09 A67G_S68G) (antibody) DVQMTQSPSSLSASVGDRVTITCRASENIYSGLAWYQQKPGKPPKLLIYRGGTLASGVSSRFSGSGSGTDFTLTISSLQPEDFATYYCQGGYYSSSSTYIAFGTGTKVTVLGGGGGSGGGGSGGGGSGGGGSQSVVESGGGLVQPGGSLRLSCAVSGFDLSSYAVSWVRQAPGKGLEWIGIIYPRANTYYASWAKGRFTISKDNSKNTVYLQMNSLRAEDSAVYFCARDRYDSGAYLYTTYFNLWGQGTLVKVSS : pKd was 9.67

Source of measurements: patent US20260327324
